Target: T1, human transferrin receptor (hTfR) fused to EGFP, on CHO cells (human, UniProt P02786 1-760)
T1 construct: whole, on cells; also called human TfR; CHO-hTfR-EGFP; not shown: EGFP from pEGFP-C1 vector, fused to the N-terminal (intracellular) end of hTfR
T1 sequence (P02786 whole entry, the tested form may be a part): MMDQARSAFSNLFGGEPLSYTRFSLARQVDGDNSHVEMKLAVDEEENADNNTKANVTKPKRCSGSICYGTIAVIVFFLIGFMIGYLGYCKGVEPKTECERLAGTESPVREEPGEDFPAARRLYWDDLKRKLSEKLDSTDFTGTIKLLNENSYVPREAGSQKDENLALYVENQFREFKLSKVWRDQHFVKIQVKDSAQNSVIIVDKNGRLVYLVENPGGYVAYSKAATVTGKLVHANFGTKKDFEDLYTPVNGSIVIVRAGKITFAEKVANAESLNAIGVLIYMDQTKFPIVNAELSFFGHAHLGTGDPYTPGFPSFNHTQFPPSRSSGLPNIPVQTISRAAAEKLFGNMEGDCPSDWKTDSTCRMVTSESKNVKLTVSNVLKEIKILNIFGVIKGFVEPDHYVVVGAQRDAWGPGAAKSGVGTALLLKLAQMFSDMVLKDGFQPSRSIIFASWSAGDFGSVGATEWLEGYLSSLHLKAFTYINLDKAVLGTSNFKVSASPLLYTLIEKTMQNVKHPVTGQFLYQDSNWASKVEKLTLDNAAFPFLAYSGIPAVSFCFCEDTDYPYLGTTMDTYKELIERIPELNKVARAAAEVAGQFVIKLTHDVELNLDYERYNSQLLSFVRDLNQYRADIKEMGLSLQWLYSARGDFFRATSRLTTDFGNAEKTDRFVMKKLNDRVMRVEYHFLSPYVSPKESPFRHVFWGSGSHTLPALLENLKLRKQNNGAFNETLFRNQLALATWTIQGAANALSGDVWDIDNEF
Test: apparent Kd, flow cytometry, CHO cells
observable: Kd (nM)

* B8^V6 (VHH) VHH: EVQLVESGGGVVQPGGSLRLSCAASGEIFSINFMRWYRQAPGKQREWVAGFTRDGFTNYPDSAKGRFTISRDNAKNTVYLQIDSLKPEDTAVYYCYMLDTWGQGTQVTVSS | 3.8
* B8^V30 (VHH) VHH: EVQLVESGGGVVQPGGSLRLSCAASGEIFSINFMRWYRQAPGKQREWVAGFTRDGSTNYPDSAKGRFTISRDNAKNTVYLQIDSLKPEDTAVYYCYMQDTWGQGTQVTVSS | 24
* C5^V16h20 (VHH) VHH: EVQLVESGGGVVQPGGSLRLSCAASGTDFSINFIRWYRQAPGKGLEFVAGFTATGNTNYADSVKGRFTISRDNAKNAVYLQMNSLRPEDTAVYYCYILDKWGQGTQVTVSS | 23
* B8^V7 (VHH) VHH: EVQLVESGGGVVQPGGSLRLSCAASGEIFSINFMRWYRQAPGKQREWVAGFTRDGYTNYPDSAKGRFTISRDNAKNTVYLQIDSLKPEDTAVYYCYMLDTWGQGTQVTVSS | 5.7
